Just for reference, PubChem BioAssay (NCI) is where these values come from.

System: U251 CNS
ASSAY_COMMENT: NCI tumour cell line growth inhibition, 48 h
// reported TGI for each item listed

[
  {
    "COMPOUND": "CC(C)(C)c1ccc(-c2nc3ccc(Cl)cc3c(=O)o2)cc1",
    "TGI": "31.3 µM"
  },
  {
    "COMPOUND": "N#CCc1ccc(C(C#N)/C(CCCC(=O)Nc2cccc([N+](=O)[O-])c2)=N/NC(N)=S)cc1 (stereo not given)",
    "TGI": "> 100 µM"
  },
  {
    "COMPOUND": "CC(=O)O.[Au].c1ccc([PH+](c2ccccc2)c2ccccc2)cc1",
    "TGI": "7.49 µM"
  },
  {
    "COMPOUND": "O=C(Nc1ccc(Cl)cc1Cl)C(=O)C(C(=O)c1ccncc1)C1OC(=O)c2ccccc21 (stereo not given)",
    "TGI": "> 100 µM"
  },
  {
    "COMPOUND": "COC(=O)C(NC(=O)c1ccccc1)c1ccco1 (stereo not given)",
    "TGI": "> 100 µM"
  },
  {
    "COMPOUND": "COc1ccc(CNc2nc3cc(C(F)(F)F)ccc3nc2C)cc1OC",
    "TGI": "> 100 µM"
  },
  {
    "COMPOUND": "COc1cc(O)c2c(c1)OCC(Cc1ccc(O)cc1)C2=O (stereo not given)",
    "TGI": "> 100 µM"
  },
  {
    "COMPOUND": "COc1ccccc1N1CCN(CCCN2/C(=C(\\O)c3ccccc3)C(=O)c3c(C)cc(C)nc3S2(=O)=O)CC1",
    "TGI": "> 100 µM"
  },
  {
    "COMPOUND": "C/C=C(/C)C(=O)O[C@H]1C[C@@H]2[C@@H](O)c3occ(C)c3C[C@]2(C)[C@@H](C)C1",
    "TGI": "28.3 µM"
  },
  {
    "COMPOUND": "CC1=CC(=O)N(n2c(Cc3ccccc3)n[nH]c2=O)C1=O",
    "TGI": "> 100 µM"
  }
]

* * *

Tested on: OVCAR-5 ovarian
ASSAY_COMMENT: NCI tumour cell line growth inhibition, 48 h; in the data active = GI50 below about 0.43 µM; inactive = the rest
Outcome codes: yes for active, no for inactive

[
  {
    "COMPOUND": "COC(=O)[C@H](Cc1c[nH]c2ccccc12)NC(=O)[C@@H](OC)[C@@H]1Cc2cc3cc(OC4CC(OC5CC(O)C(O)C(C)O5)C(O)C(C)O4)c(C)c(O)c3c(O)c2C(=O)[C@H]1OC1CC(OC2CC(OC3CC(C)(O)C(O)C(C)O3)C(O)C(C)O2)C(O)C(C)O1 (some centres not stated)",
    "GROUP_LABEL": "yes"
  },
  {
    "COMPOUND": "O=C(/C=C\\n1cnc(-c2cc(C(F)(F)F)cc(C(F)(F)F)c2)n1)NNc1cnccn1",
    "GROUP_LABEL": "yes"
  },
  {
    "COMPOUND": "O=S1(=O)N(CCNc2nccc(-c3c(-c4cccc(O)c4)nc4sccn34)n2)CCN1Cc1ccccc1",
    "GROUP_LABEL": "no"
  },
  {
    "COMPOUND": "CCN(CC)CCCC(C)Nc1cnc(C(=O)Nc2cccc3ccc(OC)nc23)cn1 (configuration not stated)",
    "GROUP_LABEL": "no"
  },
  {
    "COMPOUND": "COC(=O)c1c(C)[nH]c(/C=C2\\N=C(c3ccc[nH]3)C=C2OC)c1C",
    "GROUP_LABEL": "no"
  },
  {
    "COMPOUND": "COc1cc(/C=C2\\CCCC3=C2NC(C)=NC3c2cc(OC)c(OC)c(OC)c2)cc(OC)c1OC (configuration not stated)",
    "GROUP_LABEL": "no"
  },
  {
    "COMPOUND": "CCc1oc2ccccc2c1C(=O)c1cc(I)c(O)c(I)c1",
    "GROUP_LABEL": "no"
  },
  {
    "COMPOUND": "O=C1NN(C2=NNC3(C(=O)N2)c2ccccc2-c2ccccc23)C(c2ccccc2)=N/C1=C/c1ccc(O)cc1",
    "GROUP_LABEL": "no"
  },
  {
    "COMPOUND": "O=C(O)[C@@H]1CCCCN1Cc1cc2cc3c(cc2c2cc(OCc4ccccc4)ccc12)OCO3",
    "GROUP_LABEL": "no"
  },
  {
    "COMPOUND": "COc1cc(NS(=O)(=O)c2ccc(-c3cnc(C4CC4)o3)cc2)ccc1F",
    "GROUP_LABEL": "no"
  },
  {
    "COMPOUND": "Cc1ccc(NC(=O)c2sc3nc(C)c(C(O)c4ccccc4)cc3c2N)cc1 (configuration not stated)",
    "GROUP_LABEL": "no"
  },
  {
    "COMPOUND": "CCC(=O)c1c(C(F)(F)F)n([O-])c2ccc(C)cc2[n+]1=O",
    "GROUP_LABEL": "no"
  },
  {
    "COMPOUND": "COc1ccc(-n2cc(-c3cc(OC)c(OC)c(OC)c3)[nH]c2=O)cc1Cl",
    "GROUP_LABEL": "no"
  },
  {
    "COMPOUND": "N#Cc1cccc(NC(=O)c2cc(-c3ccc(F)cc3F)ccc2O)c1",
    "GROUP_LABEL": "no"
  },
  {
    "COMPOUND": "C/C=C1/C(=C/c2[nH]c(/C=c3\\[nH]/c(=C/C4=NC(=O)C(CC)=C4C)c(C)c3CCC(=O)O)c(CCC(=O)O)c2C)NC(=O)C1C (configuration not stated)",
    "GROUP_LABEL": "no"
  },
  {
    "COMPOUND": "CC[CH2][Sn]([Cl])([Cl])[CH2]CC.Oc1ccccc1C=NCCN=Cc1ccccc1O",
    "GROUP_LABEL": "no"
  },
  {
    "COMPOUND": "COc1cc2c3c(n(C)c(=O)c2cc1OC)-c1cc2c(cc1/C3=C\\CNCCCN)OCO2",
    "GROUP_LABEL": "no"
  }
]
